Target: Sko1 (UniProt Q02100)
Sequence: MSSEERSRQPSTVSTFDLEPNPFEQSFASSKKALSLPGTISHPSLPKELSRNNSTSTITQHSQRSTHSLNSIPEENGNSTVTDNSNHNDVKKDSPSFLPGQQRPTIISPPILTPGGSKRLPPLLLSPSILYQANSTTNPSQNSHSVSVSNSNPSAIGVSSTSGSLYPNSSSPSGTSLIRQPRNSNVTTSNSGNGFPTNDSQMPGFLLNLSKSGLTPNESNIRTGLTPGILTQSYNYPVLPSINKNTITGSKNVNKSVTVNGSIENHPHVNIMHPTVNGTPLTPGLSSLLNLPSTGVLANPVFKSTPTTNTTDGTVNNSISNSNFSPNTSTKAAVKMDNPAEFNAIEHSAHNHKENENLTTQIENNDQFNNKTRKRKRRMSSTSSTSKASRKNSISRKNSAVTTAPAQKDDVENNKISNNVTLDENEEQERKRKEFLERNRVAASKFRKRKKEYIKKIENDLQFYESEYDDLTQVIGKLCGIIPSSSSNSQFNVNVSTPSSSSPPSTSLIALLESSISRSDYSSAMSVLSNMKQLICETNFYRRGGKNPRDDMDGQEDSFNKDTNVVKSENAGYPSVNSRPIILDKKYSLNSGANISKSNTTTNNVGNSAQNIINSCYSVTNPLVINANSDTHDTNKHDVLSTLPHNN
Experiment: PBM E-score (8-mer binding enrichment) (E-score (-0.5 to 0.5)); higher = stronger / more preferred TF binding
Conditions: protein concentration: 200 nM; construct: GST-full length
Over roughly 33,000 sequences, “E-score (-0.5 to 0.5)” has its median near -0.032; the highest 2% begin near 0.36. What follows is part of a selection rich in the highest values, with near analogues and random picks from the rest.
outcomeMeasure: PBM E-score
// no unit, no text: just the number

These solved cases illustrate the format of a correct answer.
> print(dat)
   seqstring  measurednumber
1   AATCGTCT          0.0851
2   ATTCCATG         -0.0675
3   GCACGTAA           0.459
4   GCGGGTAC         -0.0713
5   CAGTGACC           -0.18

GET /values?readout=PBM E-score&item= GGACCATA
-0.148

Entry AAGTGACG has what PBM E-score?
0.445

If you can, please state the reported PBM E-score value of ATTCAAGA .
0.0257

What PBM E-score value was documented for this sequence, GCTATACC ?
-0.171

// PBM E-score lookup, key: GATACGCA
0.351

Any idea what its PBM E-score is? The sequence is ATAAGACG
0.115
